- Test system: SK-OV-3
- protocol_details: Antitumor activity against human SK-OV-3 cells assessed as reduction in cell viability incubated for 72 hrs by CCK8 assay
- Type: functional, cell-based
- condition_info: SK-OV-3, 72 h
result_type: IC50 (nM)

# input_smiles, IC50 (nM)
data = [
    ("COc1ccc2c(c1)CCCN2c1nc(Cl)nc2ccc(Br)cc12", 63.1),
]

I. COCCCNc1nc(N2CCCc3cc(OC)ccc32)c2cc(F)ccc2n1
II. COc1ccc2c(c1)CCCN2c1nc(NCCOCCOCCO)nc2ccc(F)cc12
Exam item: Lab log: flag the item ( I or II ) with the smaller IC50 figure. // return label of chosen record
Marked response: I

###

Reported pIC50 values for a set of compounds
- Tested on: SK-OV-3
- protocol_details: Antitumor activity against human SK-OV-3 cells assessed as reduction in cell viability incubated for 72 hrs by CCK8 assay
- Type: functional, cell-based
- condition_info: SK-OV-3, 72 h
pIC50: −log10 of the molar value.

# input_smiles, test_result
data = [
    ("COc1ccc2c(c1)CCCN2c1nc(N2CCCC2)nc2ccc(F)cc12", "< 6.00"),
    ("COc1ccc2c(c1)CCCN2c1nc(NCCN(C)C)nc2ccc(F)cc12", "< 6.00"),
    ("COc1ccc2c(c1)CCCN2c1nc(NC2CCCCC2)nc2ccc(F)cc12", "< 6.00"),
    ("COc1ccc2c(c1)CCCN2c1nc(N2CCN(C)CC2)nc2ccc(F)cc12", "< 6.00"),
    ("COc1ccc2c(c1)CCCN2c1nc(NC2CCCC2)nc2ccc(F)cc12", "< 6.00"),
    ("COc1ccc2c(c1)CCCN2c1nc(Cl)nc2ccc(OC(F)(F)F)cc12", "< 6.00"),
]

Exam item: Identify the reported pIC50 for the following entry. "COc1ccc2c(c1)CCCN2c1nc(Cl)nc2ccc(C(F)(F)F)cc12"
Marked response: < 6.00

Exam item: Identify the reported pIC50 for the following entry. "COc1ccc2c(c1)CCCN2c1nc(N(C)C)nc2ccc(F)cc12"
Marked response: 7.35

Exam item: Identify the reported pIC50 for the following entry. "COc1ccc2c(c1)CCCN2c1nc(N2CCCCC2)nc2ccc(F)cc12"
Marked response: < 6.00

Exam item: Identify the reported pIC50 for the following entry. "CCCCNc1nc(N2CCCc3cc(OC)ccc32)c2cc(F)ccc2n1"
Marked response: 7.59

Exam item: Identify the reported pIC50 for the following entry. "CCN(CC)c1nc(N2CCCc3cc(OC)ccc32)c2cc(F)ccc2n1"
Marked response: 6.33
